molecular target: T1, TRAIL (TNFSF10) ectodomain (UniProt P50591 39-281, limits assumed); experiment: SPR, mutant TRAIL-R2-Fc captured, TRAIL as analyte
T1 construct: extracellular domain; also called endogenous TRAIL; TRAIL ectodomain
T1 sequence (P50591 39-281 limits assumed): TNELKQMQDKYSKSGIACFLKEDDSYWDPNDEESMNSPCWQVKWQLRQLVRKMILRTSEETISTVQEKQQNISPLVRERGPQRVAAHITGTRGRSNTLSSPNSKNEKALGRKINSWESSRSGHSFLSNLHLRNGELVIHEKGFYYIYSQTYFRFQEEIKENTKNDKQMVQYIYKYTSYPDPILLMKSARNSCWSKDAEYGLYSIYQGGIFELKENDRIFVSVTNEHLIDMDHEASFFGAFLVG
# Lookup of reported koff keyed by entry
Kindly format the answer as number then unit.

binder	koff
TRAIL-R2-Fc K155A (Fc fusion, human, not shown: a dimerising Fc or GST, range 58-184) QQDLAPQQRAAPQQKRSSPSEGLCPPGHHISEDGRDCISCKYGQDYSTHWNDLLFCLRCTRCDSGEVELSPCTTTRNTVCQCEEGTFREEDSPEMCRACRTGCPRGMVKVGDCTPWSDIECVHKESGLVPRGS	0.000138 s⁻¹

Now consider the entry below.
# binder TRAIL-R2-Fc M152A (Fc fusion, human, not shown: a dimerising Fc or GST, range 58-184) QQDLAPQQRAAPQQKRSSPSEGLCPPGHHISEDGRDCISCKYGQDYSTHWNDLLFCLRCTRCDSGEVELSPCTTTRNTVCQCEEGTFREEDSPEACRKCRTGCPRGMVKVGDCTPWSDIECVHKESGLVPRGS ; its koff = 0.000678 s⁻¹
